Target: T1, full-length human GIPR with an N-terminal FLAG tag (human, UniProt P48546 22-466)
T1 sequence (looked up): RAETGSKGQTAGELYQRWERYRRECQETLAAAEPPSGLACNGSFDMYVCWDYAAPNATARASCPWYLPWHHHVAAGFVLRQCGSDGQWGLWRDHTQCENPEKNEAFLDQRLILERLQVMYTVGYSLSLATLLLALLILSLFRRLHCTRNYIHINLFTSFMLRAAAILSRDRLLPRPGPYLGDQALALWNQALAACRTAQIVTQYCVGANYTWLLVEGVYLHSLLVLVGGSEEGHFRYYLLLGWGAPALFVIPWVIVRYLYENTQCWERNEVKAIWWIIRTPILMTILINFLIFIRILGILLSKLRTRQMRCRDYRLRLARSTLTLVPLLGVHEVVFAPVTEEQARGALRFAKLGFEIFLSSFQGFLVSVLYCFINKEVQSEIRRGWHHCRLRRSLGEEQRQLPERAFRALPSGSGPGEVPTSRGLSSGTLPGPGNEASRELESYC
Assay: cell-based or functional assay
Non-standard residues stand in square brackets, D forms with d. Groups on a side chain read outwards from the residue. No end group written: not given here. *: point of attachment. G2E3 = linker of 2 Gly and 3 Glu (read GGEEE); C15 diacid = O=C(O)CCCCCCCCCCCCCC(=O)*; NMeY = CN[C@@H](Cc1ccc(O)cc1)C(=O)O; Aib = CC(C)(N)C(=O)O
readoutType: Human GIPR cAMP, HEK293T EC50 (pM)
# value in pM; strip the unit string

Please give measured Human GIPR cAMP, HEK293T EC50 of the following entry: [NMeY][Aib]EGTFISDYSIALDR[Aib]KQ[Aib]DFVNWLLAQSPSSGAPPPS-NH2 (not fully specified (residue 18, N-terminus)) [Compound 106]
0.5

Assign Human GIPR cAMP, HEK293T EC50 to the following record: Y[Aib]EGTFISDYSI[Aib]KDR[Aib]AQ[Aib]NFVNWLLAQRPSSGAPPPS-OH (not fully specified (residues 1, 14)) [Compound 56]
0.3

Please give measured Human GIPR cAMP, HEK293T EC50 of the following entry: [NMeY][Aib]EGTFISDYSIALDRK([G2E3-C15 diacid])AQ[Aib]NFVNWLLAQSPSSGAPPPS-OH (also: Me-Tyr methyl position not given here) [Compound 53]
0.1

Specify measured Human GIPR cAMP, HEK293T EC50 for Y[Aib]EGTFISDYSIAK([G2E3-C15 diacid])DR[Aib]AQ[Aib]NFVNWLLAQRPSSGAPPPS-OH (not fully specified (residue 1); also: Me-Tyr methyl position not given here) [Compound 49] .
0.2

Cited source: patent US20220227830A1
